system-name: Stimulator of interferon genes protein (Homo sapiens)
Sequence (Q86WV6 whole entry): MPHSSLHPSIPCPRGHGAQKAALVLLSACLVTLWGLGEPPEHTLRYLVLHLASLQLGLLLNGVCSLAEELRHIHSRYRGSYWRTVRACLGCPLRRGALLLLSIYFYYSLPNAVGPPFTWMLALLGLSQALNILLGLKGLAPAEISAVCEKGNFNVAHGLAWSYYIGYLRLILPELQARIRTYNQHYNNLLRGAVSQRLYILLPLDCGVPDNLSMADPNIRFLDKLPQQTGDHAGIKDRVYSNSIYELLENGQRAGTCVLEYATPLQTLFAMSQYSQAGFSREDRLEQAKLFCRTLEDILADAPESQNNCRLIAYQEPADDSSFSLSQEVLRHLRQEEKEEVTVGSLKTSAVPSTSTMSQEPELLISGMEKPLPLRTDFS
protocol-summary: Antagonist activity at STING (unknown origin) transfected with HEK293T cells assessed as fold change in IFN-beta secretion by luciferase reporter gene assay relative to control
Type: cell-based
assay-setup: filed as antagonist
measurement-type: fold change (FC)
Reply with just the number.

Return the recorded fold change (FC) value; entry: "N#Cc1ccc(NC(=O)c2ccc([N+](=O)[O-])o2)cc1"
0.7

Return the recorded fold change (FC) value; entry: "CN(C(=O)c1ccc([N+](=O)[O-])o1)c1ccc(I)cc1"
1.2

Return the recorded fold change (FC) value; entry: "O=C(Nc1ccc(I)cc1)c1ccco1"
1.3

Return the recorded fold change (FC) value; entry: "O=C(Nc1ccc(I)cc1)c1ccc([N+](=O)[O-])cc1"
1.3

Return the recorded fold change (FC) value; entry: "O=C(Nc1ccc(Br)cc1)c1ccc([N+](=O)[O-])o1"
0.2

Return the recorded fold change (FC) value; entry: "O=C(Nc1ccc(C(F)(F)F)cc1)c1ccc([N+](=O)[O-])o1"
0
